Assay: amyloid nucleation score (Sup35N fusion, yeast selection) (log enrichment); library NNK2; higher = more nucleation; inactive = no reads after selection;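 note: zero at mode of non-aggregating sequences after 7 days selection at 30°C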
// criterion not met strictly below 0.3 in amyloid nucleation score; criterion met otherwise

These recorded examples may help you get a feel for the data.
# substance, category
measured = [
    ("KNCVHE", "criterion not met"),
    ("SSNNMEIIYVFFLCREAQKL", "criterion not met"),
    ("WVPRRSSLCGAILYLGTKSM", "criterion not met"),
    ("VKFNDFTHKNWY", "criterion not met"),
]

Is reported amyloid nucleation score greater than or equal to 0.3 here: "SDAIKWIYL"
criterion met

* * *

Experiment: amyloid nucleation score (Sup35N fusion, yeast selection) (log enrichment); library NNK3; higher = more nucleation; inactive = no reads after selection
readout-type: amyloid nucleation score

# sequence-content, amyloid nucleation score
data = [
    ("GGLEVMSLITT", "inactive"),
    ("GRLLMFASDLLNSPRMCWTE", -0.687),
    ("SRKLCSHR", -0.557),
    ("HRVRYVGPENSQNLCIRDYY", "inactive"),
    ("PTQNKSDKVACGR", "inactive"),
    ("LVDLGFMRRCSQSRLQDFCF", 0.832),
]

Go through the items and report each one's amyloid nucleation score.
1. YIFQICRFGIYYVRSVYTTY
2. FFHFSNVCTWVPDYSETSPS
3. DFLFTNFSNSDLRGILCQSF

["inactive", "inactive", "inactive"]

Go through the items and report each one's amyloid nucleation score.
1. PSTDVILSANWDDRRSGLYG
2. RSSESNIICTTLRYLSVVVY
3. RFSVNGNR
4. VMHGFVGAAKSNWKNPWHRA
5. SGCRLLVVECPASCCWDITT

inactive
inactive
inactive
inactive
inactive

Go through the items and report each one's amyloid nucleation score.
1. WQRNFEWIYDPLRAKSWNSI
2. TSYSKEVFQLLKWVGNLIRG
3. AFKMVLIGFMSMVERSNVHG

[-0.558, "inactive", "inactive"]
